pIC50 reference
# measured_target: Interstitial collagenase (Homo sapiens, UniProt P03956)
# Sequence (P03956 whole entry): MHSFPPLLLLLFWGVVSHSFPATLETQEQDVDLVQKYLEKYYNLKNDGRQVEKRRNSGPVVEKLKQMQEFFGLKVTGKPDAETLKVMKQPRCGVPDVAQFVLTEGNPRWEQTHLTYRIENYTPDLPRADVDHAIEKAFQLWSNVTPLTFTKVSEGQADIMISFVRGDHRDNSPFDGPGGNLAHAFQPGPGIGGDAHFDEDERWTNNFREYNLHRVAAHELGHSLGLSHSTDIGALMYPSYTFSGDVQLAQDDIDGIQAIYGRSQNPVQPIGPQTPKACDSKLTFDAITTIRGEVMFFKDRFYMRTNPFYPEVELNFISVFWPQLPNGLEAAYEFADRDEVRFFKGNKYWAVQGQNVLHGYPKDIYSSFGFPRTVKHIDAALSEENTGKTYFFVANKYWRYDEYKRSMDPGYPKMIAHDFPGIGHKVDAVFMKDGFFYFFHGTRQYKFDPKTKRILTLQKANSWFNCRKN
# assay_summary: In vitro inhibition of human recombinant collagenase-1 (Matrix metalloprotease-1, MMP-1)
The scale used: pIC50 is minus the common logarithm of the concentration in molar units.

Check out these entries, answers already filled in.
Q: Dear colleague, I am looking for the recorded pIC50 of the following compound: COc1ccc(S(=O)(=O)N2C/C(=N\O)C[C@@H]2C(=O)NO)cc1
A: 7.77

Q: Dear colleague, I am looking for the recorded pIC50 of the following compound: CCCCOc1ccc(S(=O)(=O)N2C/C(=N\OC)C[C@@H]2C(=O)NO)cc1
A: 7.59

Q: Dear colleague, I am looking for the recorded pIC50 of the following compound: CONC1C[C@H](C(=O)NO)N(S(=O)(=O)c2ccc(Oc3ccccc3)cc2)C1 (stereo not given in full)
A: 7.07

Q: Dear colleague, I am looking for the recorded pIC50 of the following compound: O=C(NO)[C@H]1C/C(=N/Oc2ccccc2)CN1S(=O)(=O)c1ccc(Oc2ccncc2)cc1
A: 7.49

Q: Dear colleague, I am looking for the recorded pIC50 of the following compound: CCCCOc1ccc(S(=O)(=O)N2C/C(=N\OC(C)(C)C)C[C@@H]2C(=O)NO)cc1
A: 7.13

Q: Dear colleague, I am looking for the recorded pIC50 of the following compound: C=C1C[C@H](C(=O)NO)N(S(=O)(=O)c2ccc(OCCOC)cc2)C1
A: 5.81

Q: Dear colleague, I am looking for the recorded pIC50 of the following compound: CCCCOc1ccc(S(=O)(=O)N2C/C(=N\N3CCNCC3)C[C@@H]2C(=O)NO)cc1
A: 6.74

Q: Dear colleague, I am looking for the recorded pIC50 of the following compound: CCCCOc1ccc(S(=O)(=O)N2C/C(=N\OCc3ccccc3)C[C@@H]2C(=O)NO)cc1
A: 6.90

Further cases:
Q: Dear colleague, I am looking for the recorded pIC50 of the following compound: CO/N=C1/C[C@H](C(=O)NO)N(S(=O)(=O)c2ccc(OC)cc2)C1
A: 8.00

Q: Dear colleague, I am looking for the recorded pIC50 of the following compound: C=C1C[C@H](C(=O)NO)N(S(=O)(=O)c2ccc(OCCCC)cc2)C1
A: 6.48

---

# measured_target: Interstitial collagenase (Homo sapiens, UniProt P03956)
# assay_summary: In vitro inhibition of human recombinant collagenase-1 (Matrix metalloprotease-1, MMP-1)
measure: pIC50
The scale used: pIC50 is minus the common logarithm of the concentration in molar units.

Check out these entries, answers already filled in.
Q: Dear colleague, I am looking for the recorded pIC50 of the following compound: C=C1C[C@H](C(=O)NO)N(S(=O)(=O)c2ccc(OC)cc2)C1
A: 7.05

Q: Dear colleague, I am looking for the recorded pIC50 of the following compound: CCCCOc1ccc(S(=O)(=O)N2C/C(=N\O)C[C@@H]2C(=O)NO)cc1
A: 6.92

Q: Dear colleague, I am looking for the recorded pIC50 of the following compound: CCCOc1ccc(S(=O)(=O)N2C/C(=N\OC)C[C@@H]2C(=O)NO)cc1
A: 7.89

Q: Dear colleague, I am looking for the recorded pIC50 of the following compound: C=C1C[C@H](C(=O)NO)N(S(=O)(=O)c2ccc(Oc3ccccc3)cc2)C1
A: 7.82

Q: Dear colleague, I am looking for the recorded pIC50 of the following compound: CONC1C[C@H](C(=O)NO)N(S(=O)(=O)c2ccc(OC)cc2)C1 (stereo partly drawn)
A: 6.67

Q: Dear colleague, I am looking for the recorded pIC50 of the following compound: CC(C)(C)O/N=C1/C[C@H](C(=O)NO)N(S(=O)(=O)c2ccc(Oc3ccc(F)cc3)cc2)C1
A: 7.62

Q: Dear colleague, I am looking for the recorded pIC50 of the following compound: C=C1C[C@H](C(=O)NO)N(S(=O)(=O)c2ccc(OCCC)cc2)C1
A: 6.81

Q: Dear colleague, I am looking for the recorded pIC50 of the following compound: CCCCOc1ccc(S(=O)(=O)N2C/C(=N\OCC)C[C@@H]2C(=O)NO)cc1
A: 7.41

Consider the additional compound presented here.
Q: Dear colleague, I am looking for the recorded pIC50 of the following compound: CO/N=C1/C[C@H](C(=O)NO)N(S(=O)(=O)c2ccc(Oc3ccc(F)cc3)cc2)C1
A: 8.52

---

Observed pIC50 for 72 kDa type IV collagenase (Homo sapiens), reported per entry below.
The scale used: pIC50 is minus the common logarithm of the concentration in molar units.

Check out these entries, answers already filled in.
Q: Notebook entry, 72 kDa type IV collagenase (Homo sapiens) assay: pIC50 of COCCOc1ccc(S(=O)(=O)N2C/C(=N\OC)C[C@@H]2C(=O)NO)cc1 = ?
A: 9.30

Q: Notebook entry, 72 kDa type IV collagenase (Homo sapiens) assay: pIC50 of CCCCOc1ccc(S(=O)(=O)N2CC(NOC)C[C@@H]2C(=O)NO)cc1 (stereo partly specified) = ?
A: 9.00

Q: Notebook entry, 72 kDa type IV collagenase (Homo sapiens) assay: pIC50 of COc1ccc(S(=O)(=O)N2C/C(=N\OC(C)(C)C)C[C@@H]2C(=O)NO)cc1 = ?
A: 9.15

Q: Notebook entry, 72 kDa type IV collagenase (Homo sapiens) assay: pIC50 of C=C1C[C@H](C(=O)NO)N(S(=O)(=O)c2ccc(OCCCC)cc2)C1 = ?
A: 9.10

Q: Notebook entry, 72 kDa type IV collagenase (Homo sapiens) assay: pIC50 of C=C1C[C@H](C(=O)NO)N(S(=O)(=O)c2ccc(Oc3ccccc3)cc2)C1 = ?
A: 9.40

Consider the additional molecule presented here.
Q: Notebook entry, 72 kDa type IV collagenase (Homo sapiens) assay: pIC50 of C=C1C[C@H](C(=O)NO)N(S(=O)(=O)c2ccc(OCCOC)cc2)C1 = ?
A: 8.05

---

# measured_target: Matrilysin (Homo sapiens, UniProt P09237)
# Sequence (P09237 whole entry): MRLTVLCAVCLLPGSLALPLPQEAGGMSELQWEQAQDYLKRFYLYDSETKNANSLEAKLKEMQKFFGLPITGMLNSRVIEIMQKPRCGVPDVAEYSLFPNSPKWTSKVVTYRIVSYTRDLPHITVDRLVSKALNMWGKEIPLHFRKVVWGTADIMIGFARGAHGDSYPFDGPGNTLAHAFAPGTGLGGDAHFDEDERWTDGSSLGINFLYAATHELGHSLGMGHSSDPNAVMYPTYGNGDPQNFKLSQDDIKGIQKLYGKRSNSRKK
In plain terms, low IC50, meaning strictly below 0.6 µM, gives 1, and everything else gives -1.

Please review the following examples before continuing.
Q: Lab note: confirm whether the reported IC50 for this compound is below 0.6 µM, equality not counting. compound: O=C(NO)[C@H]1C/C(=N/Oc2ccccc2)CN1S(=O)(=O)c1ccc(Oc2ccncc2)cc1
A: -1

Q: Lab note: confirm whether the reported IC50 for this compound is below 0.6 µM, equality not counting. compound: CCCCOc1ccc(S(=O)(=O)N2C/C(=N\N3CCOCC3)C[C@@H]2C(=O)NO)cc1
A: 1

Further cases:
Q: Lab note: confirm whether the reported IC50 for this compound is below 0.6 µM, equality not counting. compound: CONC1C[C@H](C(=O)NO)N(S(=O)(=O)c2ccc(Oc3ccccc3)cc2)C1 (stereo partly specified)
A: -1

Q: Lab note: confirm whether the reported IC50 for this compound is below 0.6 µM, equality not counting. compound: CC(C)(C)O/N=C1/C[C@H](C(=O)NO)N(S(=O)(=O)c2ccc(Oc3ccc(F)cc3)cc2)C1
A: -1

Q: Lab note: confirm whether the reported IC50 for this compound is below 0.6 µM, equality not counting. compound: CCCCOc1ccc(S(=O)(=O)N2C/C(=N\OCC(C)C)C[C@@H]2C(=O)NO)cc1
A: 1

---

IC50 reference
# measured_target: Collagenase 3 (Homo sapiens)
# assay_summary: In vitro inhibition of human recombinant collagenase-3 (Matrix metalloprotease-13)

Check out these entries, answers already filled in.
Q: Notebook entry, Collagenase 3 (Homo sapiens) assay: IC50 of CO/N=C1/C[C@H](C(=O)NO)N(S(=O)(=O)c2ccc(OC)cc2)C1 = ?
A: < 0.5 nM

Q: Notebook entry, Collagenase 3 (Homo sapiens) assay: IC50 of COc1ccc(S(=O)(=O)N2C/C(=N\OC(C)(C)C)C[C@@H]2C(=O)NO)cc1 = ?
A: < 0.5 nM

Consider the additional compound presented here.
Q: Notebook entry, Collagenase 3 (Homo sapiens) assay: IC50 of CO/N=C1/C[C@H](C(=O)NO)N(S(=O)(=O)c2ccc(Oc3ccncc3)cc2)C1 = ?
A: < 0.2 nM

---

# measured_target: UniProtKB P45452
# assay_summary: In vitro inhibition of human recombinant collagenase-3 (Matrix metalloprotease-13)
measure: IC50

Check out these entries, answers already filled in.
Q: Notebook entry, UniProtKB P45452 assay: IC50 of CCCCOc1ccc(S(=O)(=O)N2C/C(=N\OCC(C)C)C[C@@H]2C(=O)NO)cc1 = ?
A: < 0.1 nM

Q: Notebook entry, UniProtKB P45452 assay: IC50 of COCCOc1ccc(S(=O)(=O)N2C/C(=N\OC)C[C@@H]2C(=O)NO)cc1 = ?
A: < 0.4 nM

Q: Notebook entry, UniProtKB P45452 assay: IC50 of CCCOc1ccc(S(=O)(=O)N2C/C(=N\OC)C[C@@H]2C(=O)NO)cc1 = ?
A: < 1 nM

Q: Notebook entry, UniProtKB P45452 assay: IC50 of CONC1C[C@H](C(=O)NO)N(S(=O)(=O)c2ccc(Oc3ccccc3)cc2)C1 (some centres undefined) = ?
A: < 0.4 nM

Q: Notebook entry, UniProtKB P45452 assay: IC50 of CCCCOc1ccc(S(=O)(=O)N2C/C(=N\N3CCNCC3)C[C@@H]2C(=O)NO)cc1 = ?
A: < 1 nM

Q: Notebook entry, UniProtKB P45452 assay: IC50 of C=C1C[C@H](C(=O)NO)N(S(=O)(=O)c2ccc(Oc3ccccc3)cc2)C1 = ?
A: < 0.4 nM

Q: Notebook entry, UniProtKB P45452 assay: IC50 of CO/N=C1/C[C@H](C(=O)NO)N(S(=O)(=O)c2ccc(Oc3ccccc3)cc2)C1 = ?
A: < 0.4 nM

Q: Notebook entry, UniProtKB P45452 assay: IC50 of CC(C)(C)O/N=C1/C[C@H](C(=O)NO)N(S(=O)(=O)c2ccc(Oc3ccncc3)cc2)C1 = ?
A: < 0.4 nM

Consider the additional compound presented here.
Q: Notebook entry, UniProtKB P45452 assay: IC50 of CCCCOc1ccc(S(=O)(=O)N2C/C(=N\N3CCOCC3)C[C@@H]2C(=O)NO)cc1 = ?
A: < 1 nM

These entries and their values trace back to ChEMBL document CHEMBL1132553.
